All figures here come from PubChem BioAssay.

ASSAY_TARGET: Alpha-bungarotoxin (Bungarus multicinctus) (UniProt P60615)
Sequence (P60615 whole entry, looked up): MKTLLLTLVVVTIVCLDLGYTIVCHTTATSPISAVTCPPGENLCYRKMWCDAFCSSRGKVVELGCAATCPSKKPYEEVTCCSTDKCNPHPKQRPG
EXPERIMENT_SUMMARY: alpha-bungarotoxin binders on microarray, profiling panel, artefact control for SMM control protein annotation, biochemical, small-molecule microarray, Alexa647 label, 635/667 nm fluorescence (AID 1117)
MEASUREMENT_CONDITIONS: alpha-BTX-A647 binding fluorescence, higher = more signal

MOLECULE | composite z-score
COC(=O)c1c2oc(c1C(=O)OC)C(=O)N(Cc1ccccc1)Cc1cn(nn1)C[C@H](Cc1ccccc1)NC(=O)N[C@H](CO)CC2 | -0.129
[N-]=[N+]=NCc1ccccc1C[C@@]1(C(=O)N2CCOCC2)N=C(c2ccc(OCCCO)cc2)O[C@@H]1c1ccccc1 | 0.916
COC(=O)C(CC#Cc1ccc2c(c1)[C@]1(C(=O)N2)[C@H](C(=O)N2CCN(c3ncccn3)CC2)[C@H]2C(=O)O[C@H](c3ccccc3)[C@H](c3ccccc3)N2[C@@H]1c1ccc(OCCO)cc1)C(=O)OC | 2.21
COC(=O)[C@@]1(Cc2ccc(OC)cc2)[C@H]2c3cc(C(=O)N(C)C)n(C[C@H](O)CO)c3C[C@H]2CN1C(=O)c1ccccc1 | 1.15
CN1C(=O)C2C=CC(C(O)c3cccc4ccccc34)N(N3CCCCC3)C2C1=O (stereo unspecified) | 1.67
CCOC(=O)C[C@H]1[C@H](OC(=O)c2ccc(C(=O)c3ccccc3)cc2)[C@@H](NC(=O)Cc2ccc(OC)cc2)c2cc(OCCCO)ccc2N1C(=O)c1ccccc1 | 0.168
COCCOC(=O)N1C(=O)[C@@]2(c3cc(C#CCCO)ccc31)[C@H](C(=O)Nc1nc3ccccc3s1)[C@H]1C(=O)O[C@H](c3ccccc3)[C@H](c3ccccc3)N1[C@@H]2c1ccccc1OCCO | 1.45
CC(c1ccccc1)C(O)C1C=CC2C(=O)N(c3ccccc3)C(=O)C2N1Nc1ccc([N+](=O)[O-])cc1 (stereo unspecified) | 1.53
COc1ccc([Si](C)(C)[C@@H]2[C@@H](CC(=O)N3Cc4ccccc4C[C@H]3CO)O[C@]3(C(=O)N(C)c4ccccc43)[C@H]2C)cc1 | 0.794
COc1cccc(/C=C/C=O)c1 | -0.124
C=CCC(OC(C)=O)[C@@H]1[C@@H](N(Cc2cc3ccccc3o2)C(=O)c2ccc(C)cc2)c2cc(OCCCO)ccc2N1C(=O)Cc1ccc(OC)cc1 (stereo partly specified) | 0.203
O=C(CS)NCCCCCCNC(=O)[C@H]1C[C@H]2C(=O)N[C@@H](Cc3ccccc3)C(=O)N2[C@H]1c1ccc(O)cc1 | 0.329
COc1ccc(-c2cc3c(c(CCc4ccccc4)n2)[Si](C(C)C)(C(C)C)OC3)cn1 | 0.104
CCOC(=O)C1=CC[C@@H](c2ccc(OCc3ccccc3)c(OC)c2)N(S(=O)(=O)c2ccc(C)cc2)[C@H]1c1ccc(SC)cc1 | 0.573
CCOC(=O)C1CCCCN1 (stereo unspecified) | 0.54
C=CCN1C(=O)[C@@]2(CCS(=O)(=O)c3ccccc3)N=C(c3ccc(OCCCO)cc3)O[C@H]2c2ccccc21 | 1.22
CCCCC=C[C@@H](NC(=O)c1ccc(-c2ccccc2)cc1)c1ccccc1 | 0.401
OCC1CC(c2ccccc2)=NO1 (stereo unspecified) | -0.0251
COC(=O)[C@@]1(Cc2ccc(F)cc2)[C@H]2c3cc(C(=O)N4CCCC4)n(CCc4ccc(O)c(O)c4)c3C[C@H]2CN1C(=O)c1ccccc1 | -0.125
CN(C)C(=O)[C@@]1(Cc2ccccc2CN=[N+]=[N-])N=C(c2ccc(OCCCO)cc2)O[C@H]1c1ccccc1CN=[N+]=[N-] | 1.11
COc1ccc([Si](C)(C)[C@@H]2[C@@H](CC(=O)N3Cc4ccccc4C[C@H]3CO)O[C@]3(C(=O)N(Cc4cccc(N5C(=O)c6cccc7cccc5c67)c4)c4ccccc43)[C@H]2C)cc1 | 0.886
COc1ccc(-c2nc(-c3ccccc3)c3c(c2C)CO[Si]3(C(C)C)C(C)C)cn1 | 0.397
CN1C(=O)C2C=CC(C(O)c3ccccn3)N(N(c3ccccc3)c3ccccc3)C2C1=O (stereo unspecified) | 0.451
C[C@]1(C(=O)NC2CC2)c2ccccc2C(=O)N(Cc2ccccc2)[C@H]1c1ccc(CO)cc1 | -1.02
Cc1cc(C)c(C(O)C2C=CC3C(=O)NC(=O)C3N2Nc2ccc(Cl)cc2Cl)c(C)c1 (stereo unspecified) | 1
O=C1OCC=C[C@H]2OC34C=CCN(Cn5nnc6ccccc65)C(=O)[C@H]3N(CCCO)C(=O)[C@@H]4[C@@H]12 (stereo partly specified) | -1.11
